- test.details: Cytotoxicity against mouse J774 cells assessed as cell viability at 10 ug/ml after 24 hrs by MTT assay
- Type: cell-based
- cond: read-out: Activity
Entries and their viability at 24 h, 10 ug/ml
readout: viability at 24 h, 10 ug/ml (%)

smiles.str	unit.label	quantitative.readout
COc1ccc(CN2CCN(C[C@@H](O)[C@H](Cc3ccccc3)NC(=O)OC(C)(C)C)CC2)cc1OC	%	100
CN1CCN(C[C@@H](O)[C@H](Cc2ccccc2)NC(=O)OC(C)(C)C)CC1	%	100
CC(C)(C)OC(=O)N[C@@H](Cc1ccccc1)[C@H](O)CN1CCN(Cc2ccc([N+](=O)[O-])cc2)CC1	%	98
COc1ccc(CN2CCN(C[C@@H](O)[C@H](Cc3ccccc3)NC(=O)OC(C)(C)C)CC2)cc1	%	100
CC(C)(C)OC(=O)N[C@@H](Cc1ccccc1)[C@H](O)CN1CCN(Cc2ccc(F)cc2)CC1	%	99
CC(C)(C)OC(=O)N[C@@H](Cc1ccccc1)[C@H](O)CN1CCN(Cc2ccccc2)CC1	%	100
CC(C)(C)OC(=O)N[C@@H](Cc1ccccc1)[C@H](O)CN1CCN(Cc2ccc(N)cc2)CC1	%	98
CC(C)(C)OC(=O)N[C@@H](Cc1ccccc1)[C@H](O)CN1CCN(Cc2ccc3c(c2)OCO3)CC1	%	100
